Consider the following Ki values measured on 5-hydroxytryptamine receptor 2A (Rattus norvegicus, UniProt P14842).
Sequence (P14842 whole entry): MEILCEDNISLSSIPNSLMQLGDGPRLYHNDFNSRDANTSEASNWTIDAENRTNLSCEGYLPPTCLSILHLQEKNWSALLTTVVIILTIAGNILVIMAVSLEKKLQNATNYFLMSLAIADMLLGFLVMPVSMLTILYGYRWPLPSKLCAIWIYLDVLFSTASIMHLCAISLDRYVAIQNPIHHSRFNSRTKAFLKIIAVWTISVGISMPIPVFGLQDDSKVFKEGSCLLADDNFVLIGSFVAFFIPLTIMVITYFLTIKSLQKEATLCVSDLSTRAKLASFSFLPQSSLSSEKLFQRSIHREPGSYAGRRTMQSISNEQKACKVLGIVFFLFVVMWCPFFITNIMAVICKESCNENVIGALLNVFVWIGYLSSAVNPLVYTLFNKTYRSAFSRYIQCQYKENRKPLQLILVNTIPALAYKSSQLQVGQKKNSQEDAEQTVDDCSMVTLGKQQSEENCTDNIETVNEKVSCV
Dear colleague, please return just the value in nM, with no unit written.

Prompt line: Entry under review: COc1ccccc1N1CCN(CCCn2cnc3ccccc3c2=O)CC1 . Reported Ki?
Response line: 457

Prompt line: Now try O=c1ccc(=O)n(-c2ccccc2)n1CCCCN1CCN(c2cccc(Cl)c2)CC1 .
Response line: 1820

Prompt line: Do the same for O=c1c2ccccc2ncn1CCCCN1CCN(c2cccc(Cl)c2)CC1 please
Response line: 67.6

Prompt line: Thanks! And COc1ccccc1N1CCN(CCCn2c(=O)ccc(=O)n2-c2ccccc2)CC1 ?
Response line: 2140

Prompt line: Please answer likewise for O=c1c2ccccc2c(=O)n(-c2ccccc2)n1CCCCN1CCN(c2cccc(Cl)c2)CC1
Response line: 575

Prompt line: Lookup COc1ccccc1N1CCN(CCCCn2cnc3ccccc3c2=O)CC1
Response line: 562

* * *

target: 5-hydroxytryptamine receptor 1A (Homo sapiens, UniProt P08908); test: Displacement of [3H]8-OH-DPAT from human recombinant 5-HT1A receptor expressed in HEK293 cells after 120 mins
Sequence (P08908 whole entry): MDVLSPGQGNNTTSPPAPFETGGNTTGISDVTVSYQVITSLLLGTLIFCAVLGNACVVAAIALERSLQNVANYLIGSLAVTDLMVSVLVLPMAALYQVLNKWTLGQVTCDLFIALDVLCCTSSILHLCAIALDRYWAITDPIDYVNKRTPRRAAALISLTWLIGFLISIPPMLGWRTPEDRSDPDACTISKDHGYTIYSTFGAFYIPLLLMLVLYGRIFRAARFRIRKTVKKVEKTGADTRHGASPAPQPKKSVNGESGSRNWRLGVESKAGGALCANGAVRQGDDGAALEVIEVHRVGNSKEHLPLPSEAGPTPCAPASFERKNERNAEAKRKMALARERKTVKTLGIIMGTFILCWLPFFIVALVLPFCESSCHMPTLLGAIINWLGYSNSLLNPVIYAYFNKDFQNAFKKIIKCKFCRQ
Kindly supply the reported Ki values for the records listed here.
Write the value in µM as a bare number.

Prompt line: // returns reported Ki for input O=c1ccc(=O)n(-c2ccccc2)n1CCCN1CCN(c2cccc(Cl)c2)CC1
Response line: 0.204

Prompt line: Can you check COc1ccccc1N1CCN(CCCCn2c(=O)c3ccccc3c(=O)n2-c2ccccc2)CC1 next?
Response line: 0.0427

Prompt line: Would you mind doing COc1ccccc1N1CCN(CCCn2c(=O)c3ccccc3c(=O)n2-c2ccccc2)CC1 as well?
Response line: 0.0302

Prompt line: Next: COc1ccccc1N1CCN(CCCn2cnc3ccccc3c2=O)CC1
Response line: 0.1

Prompt line: Now give it for O=c1c2ccccc2c(=O)n(-c2ccccc2)n1CCCN1CCN(c2cccc(Cl)c2)CC1 too.
Response line: 0.417

Prompt line: O=c1ccc(=O)n(-c2ccccc2)n1CCCCN1CCN(c2cccc(Cl)c2)CC1 ?
Response line: 0.0501

Prompt line: Quick one: COc1ccccc1N1CCN(CCCn2c(=O)ccc(=O)n2-c2ccccc2)CC1
Response line: 0.0537

Prompt line: Now consider O=c1c2ccccc2ncn1CCCCN1CCN(c2cccc(Cl)c2)CC1 and answer again.
Response line: 0.0501

Prompt line: Same thing, different molecule: O=c1c2ccccc2c(=O)n(-c2ccccc2)n1CCCCN1CCN(c2cccc(Cl)c2)CC1
Response line: 0.398

Prompt line: Next: COc1ccccc1N1CCN(CCCCn2c(=O)ccc(=O)n2-c2ccccc2)CC1
Response line: 0.011

Prompt line: Please give the result for COc1ccccc1N1CCN(CCCCn2cnc3ccccc3c2=O)CC1 too.
Response line: 0.0363

Prompt line: Moving on to the next molecule: O=c1c2ccccc2ncn1CCCN1CCN(c2cccc(Cl)c2)CC1
Response line: 0.234
